Origin of values: the supplement of paper PMC9170038

System: MS2 coat protein
Assay: apparent KD of MS2 coat protein; designed switch direction (-1 OFF switch, 1 ON switch): 1; higher = weaker reporter binding
Conditions: Eterna round: R95; input ligand: none
result_type: apparent KD of MS2 coat protein
A complete answer gives the number and then names the unit.

Prompt: Indicate its recorded apparent KD of MS2 coat protein; the sequence in question is GGCUAUCGCGUACGAUAGCUUAGGCAUGUACAUGAGGAUCACCCAUGUCAUGUACAGGCUUUUUGCUCGUCUUAUUG [JL-shm-2.36 JL mod] (puzzle: Sensor for hsa-mir-208a)
Completion: 210 nM

Prompt: Using the record for GCAGCCGGCACUGAGGAUAUUCAUAUUAAAACAUGAGGAUCACCCAUGUAGGCCAGAAGGCCUUGGGAGAAGGCAGGUCGGCUGG [Mat - Same State 2 - Mod of UCT - D63] (puzzle: Same State 2) , state its measured apparent KD of MS2 coat protein.
Completion: 232 nM

Prompt: Look up apparent KD of MS2 coat protein of UUUGGGUGGCUGGAGGAUAUUCUUGUGGUUACAUGAGGAUCACCCAUGUGCCGCGCGGUGCGCGAGGAGAAGGCUGGCGGCCGUU (puzzle: Same State 2) and report it.
Completion: 65.7 nM

Prompt: Give the reported value of apparent KD of MS2 coat protein for this record: AUAAGUUUGAUGCUCGUCUCUCCGUACAGACAUGAGGAUCACCCAUGUAGUCAGGAAGUAGCCUGGCCAGUAUGGCC [Berave] (puzzle: Sensor for hsa-mir-208a)
Completion: 31.1 nM

Prompt: Please supply the value of reported apparent KD of MS2 coat protein for the item GUGGUGUAGAUACAGGAUAUGUUGCUCGUAACAUGAGGAUCACCCAUGUAUCUAUGAGAAUAAAUGCAGAAGGGUGCACACCACU [Mat - Same State 2 - Mod of UCT - D74] (puzzle: Same State 2)
Completion: 639 nM

Prompt: Kindly indicate its recorded apparent KD of MS2 coat protein. Item: GGUUUAGUCGAGUGCCAUUCCACUCGAAAACAUGAGGAUCACCCAUGUUUGGGACAAGCUUUGCUCCUCGUCUUUCC [Inertequ] (puzzle: Sensor for hsa-mir-208a)
Completion: 371 nM

Prompt: Give the reported value of apparent KD of MS2 coat protein for this record: GGCUAUCGCAUUCGAUAGCUUAAGCAUGUACAUGAGGAUCACCCAUGUCAUGUACAGGCUUUUUGCUCGUACUUAUA (puzzle: Sensor for hsa-mir-208a)
Completion: 366 nM

Prompt: Output measured apparent KD of MS2 coat protein for this item: GCCCAGAGUAUAUGGGUACAAGCUUUUUGACAUGAGGAUCACCCAUGUACUCGUCUUAUGUGCAGUCCGUAGACUGC [JL-shm-2.19 Brourd mod] (puzzle: Sensor for hsa-mir-208a)
Completion: 17.4 nM

Prompt: Given GGAGCCGGCACUGAGGAUAUUCAUAUUAAAACAUGAGGAUCACCCAUGUGGGCCAGAAGGCCUUGGGAGAAGGCAGGUCGGCCCG [Bibimoar - 4] (puzzle: Same State 2) , respond with its apparent KD of MS2 coat protein.
Completion: 183 nM

Prompt: Complete the entry with apparent KD of MS2 coat protein for CUAUCUACAGGUGUCUUUGCUCGUCUUAUACAUGAGGAUCACCCAUGUUAUAGCCCGGUGCUUGCGCUGGGCUGAUU [JL ViennaUCT Tearor mod 6] (puzzle: Sensor for hsa-mir-208a)
Completion: 95.7 nM

====

Test system: K4 kissing-loop RNA reporter;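 also: bound reporter read as fluorescence of individual clusters on recovered sequencing chips by microscopy, with normalized cluster intensities fitted with a binding model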
Assay: apparent KD of K4 kissing-loop reporter; higher = weaker reporter binding
Conditions: Eterna round: R107; input ligand: theophylline 20 uM
Provide the reported apparent KD of K4 kissing-loop reporter of each item.
Enter your answer as a number in nM; do not include the unit.

Prompt: Supply recorded apparent KD of K4 kissing-loop reporter for UGUGAUGUUGUGAUGUUUAGUGUUGUUGGGCAGGAUAUUGUAGAGGCGAGAAGGGCUUGUGUGAUGUAUGAGUGAUGUUUGUAGU [cffdmullin] here.
Completion: 142

Prompt: Please give the documented apparent KD of K4 kissing-loop reporter of UCAUCAUGAUGGUAGUAACCGCAUUGGGAGCGAGGACCGGUACGGCCGCCACUCGAAAUGUACAUAGCAGUAGUGAUGUUGCUGC [theeternabot_sameState_KL_Trp_A_47]
Completion: 116

Prompt: Supply apparent KD of K4 kissing-loop reporter value. Item: UUAGUUAGAUUAUUAUUAGCCUACAAUGCUAAGGAUAUCCGAAUUCGGAGAAGGUAGUGAUGUUACUUAAGUAGGCACUAACAUU [AK7 Exc FMN A]
Completion: 925

Prompt: For the sequence AGUGUUAGGUUAGAUACCAGCCGUCUGUGAGUAACCCACAGACCGCCAGUGAUGUUGGCAGGCCCUUGGCAGCUAACAGGACAGA [Anesarerza] , give its reported apparent KD of K4 kissing-loop reporter.
Completion: 152

Prompt: Please give measured apparent KD of K4 kissing-loop reporter of the following entry: GAGCCAGAGGUUGCUGCGGGUUUCAGAGAUACCAGCCGUAUUGUAGGCCCUUGGCAGCUCGAGUGAUGUUCGAGCCGCCUCUGGC [Eredorxela]
Completion: 129

Prompt: Please indicate apparent KD of K4 kissing-loop reporter recorded for UUAAUAUUGUCGGCCGCCACUGGAUAGUAAUUUGUAUAAUCUAUUUCAAAGUGAUGUUUUGAGUCCAGGACCGGGACAUUUGAUA [JR_Nu_ExcTryptoB_Sub030]
Completion: 406

Prompt: Look up apparent KD of K4 kissing-loop reporter of UAAUCUAACGAGAGUGAUGUUCUCGUCACAGAGGAUAUACGAUUUAGUAGAAGGCUGUUGGAUUCGCUUAAUGAUGACUAGAUUA [FMN A SS t1] and report it.
Completion: 232

Prompt: Return the recorded apparent KD of K4 kissing-loop reporter value; entry: CCUUCUCAUUUCCGUUAUCAUUGCCUUAGGAAGGAUAUCAUUAUUUUGAGAAGGUCCGUGGUCUAUUUUCCGAGUGAUGUUUGGU [theeternabot_exclusion_KL_FMN_A_45]
Completion: 277

Prompt: Report apparent KD of K4 kissing-loop reporter, nothing else, for this sequence: UUUCGCUUCGUCUGAUAUAAUUGGCCAGAAGGAGCGGUAGAAUUACCAGGUAGGUCGCUGGCCCAGUGAUGUUGGGACUAGCGUG [Isrianve]
Completion: 107

Prompt: Note down apparent KD of K4 kissing-loop reporter recorded for AAUAAAAUCACGGCCGCCACUGAUAUCCAUAUUAGGAGUGAUGUUCCUAUGACUAUAUAAUUUAACAGGACCGGGUGAAUAUUUA [JR_SSTryptoB_Sub024]
Completion: 115

Prompt: Identify the reported apparent KD of K4 kissing-loop reporter for the following entry. ACUGAGCAUGCGGCCGCCACUUCAGAACGUCGCCCAAAGGGCGACGCCUCCAGAGUGAUGUUCUGGAGGACCGGGCAUGUUCAGA [Omei KL Tryp B Exc A v1]
Completion: 450

Prompt: Look up and report measured apparent KD of K4 kissing-loop reporter for this entry: UUGGACCUUAGCCUCAAUAGAACUUUGUUACGAGGACCGGUACGGCCGCCACUCGUCGGGCUCCGAUAGCCAGUGAUGUUGGCAA [theeternabot_sameState_KL_Trp_A_16]
Completion: 1010

====

System: MS2 coat protein
Assay: apparent KD of MS2 coat protein; designed switch direction (-1 OFF switch, 1 ON switch): -1; higher = weaker reporter binding
Details: input ligand: microRNA oligo, concentration not stated
result_type: apparent KD of MS2 coat protein (nM)
Provide only the numeric value, understood in nM.

Prompt: Report measured apparent KD of MS2 coat protein; entry is CACCGUUACGUAGGAUAUAGUACAUGAGGAUCACCCAUGUAAUAAAUGAGAAUUUCGGAUGUAUGCUAGAAGGACGAAAUCGGC [Ostricism 50 - Jieux - Exclusion NG 2] (Eterna round: R96, puzzle: Exclusion NG 2)
Completion: 39.9

Prompt: Write down apparent KD of MS2 coat protein measured for item CCCGGAUCAACUCCCGGGAACAACAUGAGGAUCACCCAUGUCUAGGAUAUCCACCAGUCAAUAAAGGAGAAGGAGACGGUGGUU [Raesessoqu] (Eterna round: R96, puzzle: Exclusion NG 3)
Completion: 23.3

Prompt: Answer with reported apparent KD of MS2 coat protein of AGGUGCUUCUGGAGACAUGAGGAUCACCCAUGUUGAGUUAGCGAGGAUAUCGGUAAUGCAUGUGAUGAGAAGGCGCAAACCGAU [Ex NG3 #48] (Eterna round: R96, puzzle: Exclusion NG 3)
Completion: 40.3

Prompt: For the sequence AAGGGUGCUUUUAGAACGACAUGAGGAUCACCCAUGUAGACUGAGGAUAUCUACUCCUAAGGACCGGAGAAGGCAGUGUAAUGC [Ex NG3 #64] (Eterna round: R96, puzzle: Exclusion NG 3) , report apparent KD of MS2 coat protein.
Completion: 75

Prompt: Using the record for AGCACGACUGCAGGAUAUUCCGCAGUUGAUGCGGGAGAAGGGCAGGGCAGCACUUGAGGAUCACCCAAGUGACCGUGUUGCCAA [Mutated MS2 EX1.7] (Eterna round: R96, puzzle: Exclusion NG 1) , state its measured apparent KD of MS2 coat protein.
Completion: 17.2

Prompt: Look up apparent KD of MS2 coat protein of GCUUGUGGGCAAGGAUAUCCUGCGCUGUUCUGGUUCGUGUCUGUCACAUGAGGAUCACCCAUGUGGGAGAAGGUGCCUGUGGCG [Design 66] (Eterna round: R96, puzzle: Exclusion NG 2) and report it.
Completion: 17.4

Prompt: Name the recorded apparent KD of MS2 coat protein of the sequence listed here: CACCGUUACACAGGAUAUGUUACAUGAGGAUCACCCAUGUAAUAAAUGAGAAUUUCGAAUGUAAUACAGAAGGGUGGAAUCGGC [Ostricism 73 - Jieux - Exclusion NG 2] (Eterna round: R96, puzzle: Exclusion NG 2)
Completion: 27.9

Prompt: Consider the sequence ACGAGGAUUACAGGAUAUGAAGCUAAAACGGCGUUAGAAGGGUAUACAGAGUUACAUGAGGAUCACCCAUGUUGUGAUUUCGAA [AK ExNG1-V2-4.1] (Eterna round: R96, puzzle: Exclusion NG 1) . State its measured apparent KD of MS2 coat protein.
Completion: 115

Prompt: Using the record for ACAUGAGGAUCACCCAUGUGAAACCAAUGGCUGACUUUGAGCUAGGAUAUUUGUGCAUAUCAAACAAAGAAGGAGCAUUACUGG [Deportation 98 - Jieux - Exclusion NG 3] (Eterna round: R96, puzzle: Exclusion NG 3) , state its measured apparent KD of MS2 coat protein.
Completion: 30.2

Prompt: Entry CGGUGUAACACAGGAUAUCAUCGCAACUGACGUUGAGAAGGGUGACAUGAGGAUCACCCAUGUGAUUUCUCAAUAUUAUACAUC [Prohibition 83 - Jieux - Exclusion NG 1] (Eterna round: R96, puzzle: Exclusion NG 1) needs its apparent KD of MS2 coat protein filled in; supply it.
Completion: 481

Prompt: Supply measured apparent KD of MS2 coat protein of GGUCAGACGGUAGGAUAUCCAUAUCGAGUGACCCUUUCAUAACAUGAGGAUCACCCAUGUCGGUGGGAGAAGGGCUGUACGGCG [salish99_ExNG02_R04_002] (Eterna round: R96, puzzle: Exclusion NG 2) in your reply.
Completion: 22.6

Prompt: State its apparent KD of MS2 coat protein for this sequence: CACAUGGGAACAUGAGGAUCACCCAUGUGAUAGAAAGGUAUGGAGGAUAUCAUACCAUCGCCGUGUGAGAAGGUCAGGCCAACA [Eternabot solution 46] (Eterna round: R96, puzzle: Exclusion NG 3)
Completion: 151

Prompt: Give apparent KD of MS2 coat protein for the following sequence: CCAUGGGAGCGAGGAUAUAGCCCAUGGGAAGAACUAGAAGGCGCAGACAUGAGGAUCACCCAUGUGUUCAUGAGGAGGUGGACA (Eterna round: R96, puzzle: Exclusion NG 1)
Completion: 82.6

Prompt: Look up and report measured apparent KD of MS2 coat protein for this entry: GUCAGCUCGUGAGGAUAUGCACAUGAGGAUCACCCAUGUAAGAUCAAGCUGCUUCGGCAGCAAGUGCAGAAGGUACGAGCUGAU [ENG2/9-C3] (Eterna round: R96, puzzle: Exclusion NG 2)
Completion: 225

Prompt: Note down apparent KD of MS2 coat protein recorded for CAUAGUUACUCAGGAUAUAGUACAUGAGGAUCACCCAUGUAAUAAAUGAGAAUUUCGAAUGUAUACUAGAAGGGAGAAAUCUAC [Ostracism 55 - Jieux - Exclusion NG 2] (Eterna round: R96, puzzle: Exclusion NG 2)
Completion: 35.8

Prompt: Return apparent KD of MS2 coat protein for the following sequence: GAAUAGGCAGGAUAUACAUGAGGAUCACCCAUGUGCUUGCGAUAGGCACGUGAACAACGUAGAAGGGCCUUAAC [ChP 13.04.2015 #12] (Eterna round: R96, puzzle: Exclusion 3)
Completion: 30.8

Prompt: Consider the sequence AGCUAGUGCCGAGGAUAUGAUACAUGAGGAUCACCCAUGUGUAGGGUGUAUAUAUAUCAAUAAUAUUAGAAGGCGGCGUUGGCA [JL ENG2 1.47] (Eterna round: R96, puzzle: Exclusion NG 2) and give its recorded apparent KD of MS2 coat protein.
Completion: 480

Prompt: Using the record for CCUCGCCCUCUUGCACAUGAGGAUCACCCAUGUUUUACGUACUAGGAUAUAGCUAUGUUCAAUCGUUAGAAGGAGUUCAUGGAU [Eternabot solution 37] (Eterna round: R96, puzzle: Exclusion NG 3) , state its measured apparent KD of MS2 coat protein.
Completion: 77.4
